Test: Oral bioavailability in mouse relative to control
Format: ADME, organism-based
Conditions: in vivo

>  <smiles-data>
N#Cc1ccc(O)c(-c2nc(NCc3ncccn3)c3ccccc3n2)c1

>  <bioavailability (%)>
18.6

$$$$

====

System: NCI-H1975
Assay: Growth inhibition of human NCI-H1975 cells
Type: functional, cell-based
pIC50: −log10 of the molar value.

>  <smiles-data>
CN(C)C1CCN(c2ccc(Nc3cc4c(N5CCC(CO)CC5)nc(Nc5ccc(F)cc5)nc4cn3)nc2)CC1

>  <pIC50>
6.40

$$$$

====

Test system: BaF3
Assay: cells
Conditions: Mus musculus

>  <compound>
COc1cc(N2CCC(N3CCN(C)CC3)CC2)ccc1Nc1ncc(Cl)c(Nc2ccccc2P(C)(C)=O)n1 [BRIGATINIB]

>  <IC50>
30 nM

$$$$

====

Molecular target: Epidermal growth factor receptor (Homo sapiens, UniProt P00533, C797S/L858R/T790M)
Sequence (P00533 25-1210 T790M/C797S/L858R limits assumed): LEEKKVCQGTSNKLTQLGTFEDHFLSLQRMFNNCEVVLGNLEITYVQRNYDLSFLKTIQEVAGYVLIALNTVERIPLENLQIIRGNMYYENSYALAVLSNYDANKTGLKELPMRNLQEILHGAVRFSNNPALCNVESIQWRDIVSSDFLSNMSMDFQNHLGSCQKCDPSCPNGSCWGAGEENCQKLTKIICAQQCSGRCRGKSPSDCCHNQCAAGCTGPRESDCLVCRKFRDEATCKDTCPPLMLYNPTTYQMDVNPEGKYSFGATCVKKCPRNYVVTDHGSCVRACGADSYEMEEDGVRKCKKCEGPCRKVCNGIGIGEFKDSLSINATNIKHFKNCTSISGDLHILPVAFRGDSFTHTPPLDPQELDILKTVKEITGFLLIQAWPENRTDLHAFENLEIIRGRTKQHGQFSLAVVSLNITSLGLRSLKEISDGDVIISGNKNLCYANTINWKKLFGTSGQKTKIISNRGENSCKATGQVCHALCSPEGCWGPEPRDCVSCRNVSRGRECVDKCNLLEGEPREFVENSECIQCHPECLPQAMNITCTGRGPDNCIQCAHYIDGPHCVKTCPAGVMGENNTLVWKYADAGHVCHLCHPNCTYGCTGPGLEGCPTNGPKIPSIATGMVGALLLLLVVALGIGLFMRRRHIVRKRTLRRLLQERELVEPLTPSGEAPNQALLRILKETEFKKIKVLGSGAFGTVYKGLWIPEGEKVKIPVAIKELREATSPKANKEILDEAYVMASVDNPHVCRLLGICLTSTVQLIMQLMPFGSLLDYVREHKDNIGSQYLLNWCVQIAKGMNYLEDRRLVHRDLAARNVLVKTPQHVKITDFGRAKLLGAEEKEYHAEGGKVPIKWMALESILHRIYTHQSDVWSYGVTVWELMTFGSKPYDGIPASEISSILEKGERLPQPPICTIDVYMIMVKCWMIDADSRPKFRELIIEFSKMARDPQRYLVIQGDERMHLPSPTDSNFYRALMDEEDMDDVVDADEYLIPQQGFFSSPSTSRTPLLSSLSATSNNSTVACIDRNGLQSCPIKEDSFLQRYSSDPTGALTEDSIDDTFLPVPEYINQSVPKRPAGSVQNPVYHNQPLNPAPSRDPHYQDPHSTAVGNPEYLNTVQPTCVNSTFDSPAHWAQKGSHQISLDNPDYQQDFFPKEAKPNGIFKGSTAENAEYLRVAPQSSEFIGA
Test: Inhibition of EGFR L858R/T790M/C797S triple mutant (unknown origin) by HTRF method
pIC50: −log10 of the molar value.

>  <smiles-data>
N#Cc1ccc(O)c(-c2nc(NCc3ncccn3)c3ccccc3n2)c1

>  <pIC50>
6.20

$$$$

====

# key: entry, value: half-life
Assay: Half life in Ba/F3 EGFR cells xenografted nude mouse liver microsomes
Assay type: ADME

>  <smiles-data>
CCc1cc(Nc2ncc(Br)c(Nc3ccc4nccnc4c3P(C)(C)=O)n2)c(OC)cc1N1CCC(N2CCN(C)CC2)CC1

>  <half-life, h>
20.5

$$$$
>  <smiles-data>
COc1cc(N2CCC(N3CCN(C)CC3)CC2)c(C)cc1Nc1ncc(Br)c(Nc2ccc3nccnc3c2P(C)(C)=O)n1

>  <half-life, h>
10

$$$$

====

Experiment: Oral bioavailability in rat relative to control
Assay type: ADME, organism-based
Details: in vivo
value-kind: bioavailability (%)

>  <smiles-data>
N#Cc1ccc(O)c(-c2nc(NCc3ncccn3)c3ccccc3n2)c1

>  <unit-text>
%

>  <observed-measurement>
18.6

$$$$

====

Molecular target: Epidermal growth factor receptor (Homo sapiens, UniProt P00533, L858R)
Sequence (P00533 25-1210 L858R limits assumed): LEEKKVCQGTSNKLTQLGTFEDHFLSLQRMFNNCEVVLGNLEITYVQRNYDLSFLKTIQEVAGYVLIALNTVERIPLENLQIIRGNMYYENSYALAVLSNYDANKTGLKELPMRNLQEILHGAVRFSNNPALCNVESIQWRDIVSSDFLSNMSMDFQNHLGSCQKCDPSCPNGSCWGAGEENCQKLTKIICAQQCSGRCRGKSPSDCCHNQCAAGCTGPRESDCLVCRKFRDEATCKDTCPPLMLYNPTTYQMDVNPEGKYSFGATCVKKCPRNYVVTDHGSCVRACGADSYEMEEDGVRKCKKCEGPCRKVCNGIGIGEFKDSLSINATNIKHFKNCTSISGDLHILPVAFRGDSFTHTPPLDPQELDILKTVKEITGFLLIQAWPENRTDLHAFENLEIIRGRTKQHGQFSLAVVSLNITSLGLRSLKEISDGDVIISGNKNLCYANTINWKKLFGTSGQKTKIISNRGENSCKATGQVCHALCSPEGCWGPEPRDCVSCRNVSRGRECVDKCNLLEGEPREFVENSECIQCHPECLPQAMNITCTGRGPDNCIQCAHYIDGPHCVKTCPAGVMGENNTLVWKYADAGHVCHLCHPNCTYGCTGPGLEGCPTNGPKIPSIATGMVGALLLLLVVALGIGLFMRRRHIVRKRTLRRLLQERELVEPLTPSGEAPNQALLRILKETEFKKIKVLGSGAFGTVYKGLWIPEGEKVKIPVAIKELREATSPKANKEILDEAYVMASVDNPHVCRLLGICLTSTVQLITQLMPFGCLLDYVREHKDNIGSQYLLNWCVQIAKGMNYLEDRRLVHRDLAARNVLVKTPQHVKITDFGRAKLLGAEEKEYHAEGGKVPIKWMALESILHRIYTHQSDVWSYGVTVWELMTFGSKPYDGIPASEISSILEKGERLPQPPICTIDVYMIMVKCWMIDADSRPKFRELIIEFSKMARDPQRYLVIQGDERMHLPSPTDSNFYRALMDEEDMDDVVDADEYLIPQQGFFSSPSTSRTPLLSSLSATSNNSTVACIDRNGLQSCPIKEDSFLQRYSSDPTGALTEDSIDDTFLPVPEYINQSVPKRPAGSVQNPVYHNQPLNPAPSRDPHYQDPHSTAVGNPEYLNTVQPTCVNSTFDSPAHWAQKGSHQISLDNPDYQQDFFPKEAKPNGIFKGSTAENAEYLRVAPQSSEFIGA
Assay: Inhibition of EGFR L858R mutant (unknown origin)

>  <smiles-data>
CN(C)CCOc1ccc(Nc2ncc3nc(Sc4ccc(F)cc4)n(C4CCOCC4)c3n2)cc1

>  <IC50>
1.2 nM

$$$$

====

Let's go through some IC50 measurements on Epidermal growth factor receptor (Homo sapiens) together.

>  <smiles-data>
OCCCc1nc(-c2ccc(F)cc2)c(-c2ccnc3[nH]c(-c4ccccc4)cc23)[nH]1

>  <IC50>
≤ 0.2 nM

$$$$
>  <smiles-data>
COC(=O)c1ccc(O)c(-c2nc(NCc3cccnc3)c3ccccc3n2)c1

>  <IC50>
≥ 50000 nM

$$$$
>  <smiles-data>
OCCCCc1nc(-c2ccc(F)cc2)c(-c2ccnc3[nH]c(-c4ccccc4)cc23)[nH]1

>  <IC50>
≤ 0.3 nM

$$$$
>  <smiles-data>
N#Cc1ccc(O)c(-c2nc(NCc3cnccn3)c3ccccc3n2)c1

>  <IC50>
≥ 50000 nM

$$$$
>  <smiles-data>
Cn1cc(-c2cc(C(=O)/N=c3\[nH]c4ccccc4n3[C@H]3CC[C@H](O)CC3)ccn2)cn1

>  <IC50>
540 nM

$$$$
>  <smiles-data>
OCCc1nc(-c2ccc(F)cc2)c(-c2ccnc3[nH]c(-c4ccccc4)cc23)[nH]1

>  <IC50>
≤ 0.3 nM

$$$$

Entry source: ChEMBL document CHEMBL5143505
